# Experimental System: HLA-A*02:01
# Procedure Summary: IEDB peptide-MHC binding, purified MHC/competitive/fluorescence; filed as Kd, often an IC50 or EC50 that approximates it; bounds were set here for any values at or beyond the usual limits of such assays
# Details: source organism: Bacillus anthracis str. A0488
Measured Endpoint: Kd

Incoming: State its Kd: MFKNFPFFK
Outgoing: ≥ 20 µM

====

# Experimental System: HLA-B*83:01
# Procedure Summary: IEDB peptide-MHC binding, purified MHC/competitive/fluorescence; filed as Kd, often an IC50 or EC50 that approximates it; bounds were set here for any values at or beyond the usual limits of such assays
# Details: source organism: Rattus norvegicus
Measured Endpoint: Kd

Incoming: Fill in Kd for FLRKNQRAL tested with HLA-B*83:01.
Outgoing: ≥ 5 µM

====

# Experimental System: HLA-A*23:01
# Procedure Summary: IEDB peptide-MHC binding, purified MHC/direct/fluorescence; filed as Kd, often an IC50 or EC50 that approximates it; bounds were set here for any values at or beyond the usual limits of such assays
# Details: source organism: Francisella tularensis subsp. holarctica LVS
Measured Endpoint: Kd (nM)
Give bare numbers, in nM.

Incoming: State its Kd: VYYIVVRDF
Outgoing: 17

====

# Experimental System: HLA-A*02:01
# Procedure Summary: IEDB peptide-MHC binding, purified MHC/competitive/fluorescence; bounds were set here for any values at or beyond the usual limits of such assays
# Details: source organism: Sudan ebolavirus
Measured Endpoint: pIC50
Answers are plain numbers, as −log10 of the molar value.

| Sequence Chain | Reported |
| --- | --- |
| AFSMPLGVV | 5.05 |

Kindly give each listed record's pIC50.
1. KFRKSSFFV
2. FLRATTELR
3. FFLYDRLAS
4. QIPSSSPTT

Outgoing:
1. 5.11
2. 4.25
3. 4.40
4. 4.37

====

# Experimental System: HLA-A*69:01
# Procedure Summary: IEDB peptide-MHC binding, purified MHC/direct/fluorescence; filed as Kd, often an IC50 or EC50 that approximates it; bounds were set here for any values at or beyond the usual limits of such assays
# Details: source organism: Yersinia pestis
pKd: −log10 of the molar value.
Measured Endpoint: pKd

Incoming: State its pKd: LLIDDSFSS
Outgoing: ≤ 4.70

====

# Experimental System: HLA-B*40:01
# Procedure Summary: IEDB peptide-MHC binding, purified MHC/direct/fluorescence; filed as Kd, often an IC50 or EC50 that approximates it; bounds were set here for any values at or beyond the usual limits of such assays
# Details: source organism: Mycobacterium tuberculosis
pKd: −log10 of the molar value.
Measured Endpoint: pKd

| Sequence Chain | Measured Endpoint | Reported |
| --- | --- | --- |
| KLVGIELPK | pKd | ≤ 4.70 |

Incoming: Fill in pKd for SPREECGVF tested with HLA-B*40:01.
Outgoing: ≤ 4.70

====

# Experimental System: HLA-C*12:03
# Procedure Summary: IEDB peptide-MHC binding, purified MHC/direct/fluorescence; filed as Kd, often an IC50 or EC50 that approximates it; bounds were set here for any values at or beyond the usual limits of such assays
# Details: source organism: human gammaherpesvirus 4
Measured Endpoint: Kd

Incoming: State its Kd: YYFQSGNEI
Outgoing: ≥ 20 µM

====

# Experimental System: HLA-A*24:02
# Procedure Summary: IEDB peptide-MHC binding, purified MHC/direct/fluorescence; filed as Kd, often an IC50 or EC50 that approximates it; bounds were set here for any values at or beyond the usual limits of such assays
# Details: source organism: Escherichia coli O157:H7
Measured Endpoint: Kd

Incoming: State its Kd: LDKGKLWHL
Outgoing: ≥ 20 µM

====

# Experimental System: HLA-B*44:02
# Procedure Summary: IEDB peptide-MHC binding, purified MHC/direct/fluorescence; filed as Kd, often an IC50 or EC50 that approximates it; bounds were set here for any values at or beyond the usual limits of such assays
# Details: source organism: Camelpox virus M-96
Measured Endpoint: Kd

Incoming: Fill in Kd for SQEDNHFSL tested with HLA-B*44:02.
Outgoing: ≥ 20 µM

====

# Experimental System: HLA-A*02:01
# Procedure Summary: IEDB peptide-MHC binding, purified MHC/competitive/radioactivity; filed as Kd, often an IC50 or EC50 that approximates it; bounds were set here for any values at or beyond the usual limits of such assays
# Details: source organism: Dengue virus 2 Jamaica/1409/1983
Measured Endpoint: Kd (nM)
One number for each entry, in nM.

Incoming: State its Kd: FTMRLLSPV
Outgoing: 1.56

====

# Experimental System: HLA-B*58:01
# Procedure Summary: IEDB peptide-MHC binding, purified MHC/competitive/radioactivity; filed as Kd, often an IC50 or EC50 that approximates it; bounds were set here for any values at or beyond the usual limits of such assays
# Details: source organism: Homo sapiens
Measured Endpoint: Kd

Incoming: State its Kd: FIKDGSSTY
Outgoing: ≥ 39.8 µM

====

# Experimental System: HLA-A*30:01
# Procedure Summary: IEDB peptide-MHC binding, purified MHC/competitive/radioactivity; filed as Kd, often an IC50 or EC50 that approximates it; bounds were set here for any values at or beyond the usual limits of such assays
# Details: source organism: Vaccinia virus WR
Measured Endpoint: pKd
Answers are plain numbers, as −log10 of the molar value.

Kindly give each listed record's pKd.
1. SQIITLTAF
2. LFLDIECHF
3. KTINALVYF
4. ISRFANLIK
5. RTKSKILFG
6. MQRIISLSV

Outgoing:
4.79
7.72
6.88
7.87
8.00
8.06

Kindly give each listed record's pKd.
1. KVFVPAPFG
2. SYRTRAINK
3. RGRLLAAGK

Outgoing:
[8.18, 5.99, 6.90]

====

# Experimental System: HLA-B*40:01
# Procedure Summary: IEDB peptide-MHC binding, purified MHC/competitive/radioactivity; filed as Kd, often an IC50 or EC50 that approximates it; bounds were set here for any values at or beyond the usual limits of such assays
# Details: source organism: Dengue virus 3 Martinique/1243/1999
Measured Endpoint: pKd
Give bare numbers, as −log10 of the molar value.

Sample answers from the record:
| Sequence Chain | pKd |
| --- | --- |
| EELPETMETL | 6.72 |
| AETQNSSFII | 7.64 |

Next item in the queue.
Incoming: Fill in pKd for AEPDGPTPEL tested with HLA-B*40:01.
Outgoing: 7.97

====

# Experimental System: HLA-A*02:03
# Procedure Summary: IEDB peptide-MHC binding, purified MHC/direct/fluorescence; filed as Kd, often an IC50 or EC50 that approximates it; bounds were set here for any values at or beyond the usual limits of such assays
# Details: source organism: Entamoeba histolytica HM-1:IMSS
pKd: −log10 of the molar value.
Measured Endpoint: pKd

Incoming: State its pKd: VKINIFPLY
Outgoing: ≤ 4.70

====

# Experimental System: HLA-B*46:01
# Procedure Summary: IEDB peptide-MHC binding, purified MHC/direct/fluorescence; filed as Kd, often an IC50 or EC50 that approximates it; bounds were set here for any values at or beyond the usual limits of such assays
# Details: source organism: Influenza A virus (A/Hong Kong/514/97(H5N1))
Measured Endpoint: Kd

Incoming: State its Kd: VSDGGPNLY
Outgoing: ≥ 20 µM

====

# Experimental System: HLA-B*15:01
# Procedure Summary: IEDB peptide-MHC binding, purified MHC/direct/fluorescence; filed as Kd, often an IC50 or EC50 that approximates it; bounds were set here for any values at or beyond the usual limits of such assays
# Details: source organism: Burkholderia mallei
Measured Endpoint: pKd
Answers are plain numbers, as −log10 of the molar value.

Incoming: State its pKd: AVAVARVAA
Outgoing: 5.38

====

# Experimental System: HLA-B*18:01
# Procedure Summary: IEDB peptide-MHC binding, purified MHC/competitive/radioactivity; filed as Kd, often an IC50 or EC50 that approximates it; bounds were set here for any values at or beyond the usual limits of such assays
# Details: source organism: Mammarenavirus machupoense
Measured Endpoint: Kd (nM)
Numbers only, in nM.

Incoming: State its Kd: TEFQSVTFTM
Outgoing: 32.8

====

# Experimental System: HLA-A*32:15
# Procedure Summary: IEDB peptide-MHC binding, purified MHC/competitive/fluorescence; filed as Kd, often an IC50 or EC50 that approximates it; bounds were set here for any values at or beyond the usual limits of such assays
# Details: source organism: Homo sapiens
Measured Endpoint: Kd (nM)
Numbers only, in nM.

Incoming: Fill in Kd for FLNPVIYTF tested with HLA-A*32:15.
Outgoing: 24

====

# Experimental System: HLA-B*39:01
# Procedure Summary: IEDB peptide-MHC binding, purified MHC/direct/fluorescence; filed as Kd, often an IC50 or EC50 that approximates it; bounds were set here for any values at or beyond the usual limits of such assays
# Details: source organism: Mycobacterium tuberculosis
Measured Endpoint: Kd (nM)
One number for each entry, in nM.

Incoming: Fill in Kd for SQAFNTPAL tested with HLA-B*39:01.
Outgoing: 30.8
